B1: LINE1-mini (parent)
chain: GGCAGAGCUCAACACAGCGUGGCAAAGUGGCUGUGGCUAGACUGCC

variants of: B1; assay: self-cleavage, relative activity (ratio to wild type); higher = more cleavage; in vitro, sequencing; the parent is a self-cleaving ribozyme
quantity.name: self-cleavage
Hey, just send me the number, nothing else.

Look over these answered cases.
Inquiry: Give its self-cleavage value. Item: A25C U28A
Reply text: 1.37

Inquiry: self-cleavage lookup needed for A4G A6C , thanks.
Reply text: 0.14

Inquiry: Reported self-cleavage, variant `C46U` : ____
Reply text: 1.03

Inquiry: Reported self-cleavage for G1A G5U : what is it?
Reply text: 0.08

Inquiry: So what's the measured self-cleavage for this one? G21A G22C
Reply text: 0.38

Inquiry: Fill in: self-cleavage of A11U A25U is ___
Reply text: 0.37

Continuing:
Inquiry: Which value of self-cleavage has been reported for C18A C46A in the records?
Reply text: 0.95

Inquiry: Consider the variant C15U C37U and give its measured self-cleavage.
Reply text: 0.11

Inquiry: What value of self-cleavage has been recorded for this entry: G2A C45G
Reply text: 0.75
